System name: PYL5 (Arabidopsis thaliana, UniProt Q9FLB1)
Construct: 6X-His; made in house; host or cells: E. coli BL21[DE3]pLysS
Sequence (Q9FLB1 1-203): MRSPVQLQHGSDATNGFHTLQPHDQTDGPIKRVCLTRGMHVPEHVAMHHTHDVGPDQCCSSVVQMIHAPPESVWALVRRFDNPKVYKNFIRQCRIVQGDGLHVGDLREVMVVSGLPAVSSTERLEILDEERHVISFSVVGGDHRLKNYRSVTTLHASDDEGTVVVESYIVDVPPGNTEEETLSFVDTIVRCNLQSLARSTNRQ
Sequence (Q9CAJ0 23-511 partner): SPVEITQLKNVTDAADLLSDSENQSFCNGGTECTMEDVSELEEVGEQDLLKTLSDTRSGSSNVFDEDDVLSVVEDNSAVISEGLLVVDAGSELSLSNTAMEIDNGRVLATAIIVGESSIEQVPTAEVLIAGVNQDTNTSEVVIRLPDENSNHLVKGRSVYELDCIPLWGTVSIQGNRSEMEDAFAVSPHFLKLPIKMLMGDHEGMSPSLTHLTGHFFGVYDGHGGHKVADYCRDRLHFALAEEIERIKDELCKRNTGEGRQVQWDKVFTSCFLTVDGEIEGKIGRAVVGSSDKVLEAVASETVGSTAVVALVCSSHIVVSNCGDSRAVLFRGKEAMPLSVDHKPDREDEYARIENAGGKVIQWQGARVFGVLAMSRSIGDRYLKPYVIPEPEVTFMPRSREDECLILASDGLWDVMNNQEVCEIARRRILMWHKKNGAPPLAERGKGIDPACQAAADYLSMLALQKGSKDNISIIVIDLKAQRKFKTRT
Assay summary: receptor-mediated PP2C (HAB1) inhibition in vitro assay
Type: biochemical
Measurement conditions: Table XII-B; calculated from dose curves; read-out: PP2C Activity (IC50 in uM) PYL5
IC50 by entry:
Measured metric: IC50

1) O=C(NS(=O)(=O)Cc1ccc(F)cc1)C1(c2ccccc2)CCCCC1 [Compound 64] : > 50 µM
2) CC(C)COC(=O)NS(=O)(=O)Cc1ccc(C#N)cc1 [Compound 65] : 14.2 µM
3) N#Cc1ccc(CS(=O)(=O)NC(=O)C(c2ccccc2)c2ccccc2)cc1 [Compound 71] : > 50 µM
4) N#Cc1ccc(CS(=O)(=O)NC(=O)C(c2ccc(F)cc2)c2ccc(F)cc2)cc1 [Compound 72] : > 50 µM
5) N#Cc1ccc(CS(=O)(=O)NC(=O)C2(c3ccccc3)CCCCC2)cc1 [Compound 69] : > 50 µM
6) N#Cc1ccc(CS(=O)(=O)NC(=O)C2(c3ccsc3)CCCCC2)cc1Br [Compound 106] : 7.26 µM
7) CC1CCC(C(=O)NS(=O)(=O)Cc2ccc(C#N)cc2)(c2ccc(F)cc2)CC1 (stereo not drawn) [Compound 67] : 25.3 µM
8) N#Cc1ccc(CS(=O)(=O)NC(=O)C2(c3ccsc3)CCCCC2)cc1 [Compound 78] : > 50 µM
9) CC1(C)CCC(C(=O)NS(=O)(=O)Cc2ccc(C#N)cc2)(c2ccc(F)cc2)CC1 [Compound 68] : > 50 µM

====

System name: PYL9 (Arabidopsis thaliana, UniProt Q84MC7)
Construct: 6X-His; made in house; host or cells: E. coli BL21[DE3]pLysS
Sequence (Q84MC7 whole entry, one chain of several): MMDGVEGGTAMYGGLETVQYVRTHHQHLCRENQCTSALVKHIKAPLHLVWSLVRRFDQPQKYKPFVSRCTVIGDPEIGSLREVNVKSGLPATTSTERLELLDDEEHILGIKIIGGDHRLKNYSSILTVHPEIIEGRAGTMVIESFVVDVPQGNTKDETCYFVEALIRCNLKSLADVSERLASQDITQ
Assay summary: receptor-mediated PP2C (HAB1) inhibition in vitro assay
Assay type: biochemical
Measurement conditions: compound at 25 μM; control without agonist = 100%
Measured PP2C Activity (25 μm) PYL9, listed per entry.
Measured metric: PP2C Activity (25 μm) PYL9 (%)

1) CC(C)(C(=O)NS(=O)(=O)Cc1ccc(F)cc1)c1ccccc1 : 36
2) CC(C)(C(=O)NS(=O)(=O)Cc1ccc(C#N)cc1)c1ccc2c(c1)OCCO2 : 98
3) N#Cc1ccc(CS(=O)(=O)NC(=O)C2(c3ccc(C(F)(F)F)cc3)CCOCC2)cc1 : 98
4) N#Cc1ccc(CS(=O)(=O)NC(=O)C2(c3ccccc3)CCN(S(=O)(=O)c3ccccc3)CC2)cc1 : 101
5) CC(C)(C(=O)NS(=O)(=O)Cc1ccc(C#N)cc1)c1ccccc1F : 69
6) Cc1cccc(C2(C(=O)NS(=O)(=O)Cc3ccc(C#N)cc3)CC2)c1 : 66
7) N#Cc1ccc(CS(=O)(=O)NC(=O)C2(c3cccc(F)c3)CCC2)cc1 : 24
8) CC(C)(C(=O)NS(=O)(=O)Cc1ccc(C#N)cc1)c1cccc(Br)c1 : 47
